protocol-notes: recombinant UMI read abundance after kanamycin selection (control-corrected) (log10(CPM+1)); higher = more efficient recombination; extreme values may be limits of the assay; sequences stand for … in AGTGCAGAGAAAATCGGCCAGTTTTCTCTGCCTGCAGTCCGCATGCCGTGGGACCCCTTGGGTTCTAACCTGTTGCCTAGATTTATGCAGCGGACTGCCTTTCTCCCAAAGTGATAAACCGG…AGGTTGGTTTCACT; site = the 11-nt donor;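 note: IS621 bridge recombinase in Escherichia coli cells against a fixed T5 target plasmid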
Param threshold (0.003) applies to recombinant UMI read abundance (log10); output class 1 when value >= threshold, class 0 when value < threshold.

Use the examples below as a reference point.
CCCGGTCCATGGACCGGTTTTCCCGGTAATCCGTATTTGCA (site CCGGGTCCTTG) : class 1
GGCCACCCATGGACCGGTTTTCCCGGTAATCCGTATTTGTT (site GGCCACCCTAC) : class 1
AGCACTACATGGACCGGTTTTCCCGGTAATCCGTATTTGAC (site AGTACTACTGT) : class 1
AGGCAGACATGGACCGGTTTTCCCGGTAATCCGTATTTGCT (site AGGAAGACTTG) : class 0

For the next question, use this sequence.
Q. Decide: is the reported value of recombinant UMI read abundance (log10) for CCATGTGCATGGACCGGTTTTCCCGGTAATCCGTATTTGAT (site CCAGGTGCTAT) equal to or greater than 0.003?
A. class 1
